Molecular target: FGFR3 (h) (Homo sapiens, UniProt P22607)
Sequence (P22607 23-806): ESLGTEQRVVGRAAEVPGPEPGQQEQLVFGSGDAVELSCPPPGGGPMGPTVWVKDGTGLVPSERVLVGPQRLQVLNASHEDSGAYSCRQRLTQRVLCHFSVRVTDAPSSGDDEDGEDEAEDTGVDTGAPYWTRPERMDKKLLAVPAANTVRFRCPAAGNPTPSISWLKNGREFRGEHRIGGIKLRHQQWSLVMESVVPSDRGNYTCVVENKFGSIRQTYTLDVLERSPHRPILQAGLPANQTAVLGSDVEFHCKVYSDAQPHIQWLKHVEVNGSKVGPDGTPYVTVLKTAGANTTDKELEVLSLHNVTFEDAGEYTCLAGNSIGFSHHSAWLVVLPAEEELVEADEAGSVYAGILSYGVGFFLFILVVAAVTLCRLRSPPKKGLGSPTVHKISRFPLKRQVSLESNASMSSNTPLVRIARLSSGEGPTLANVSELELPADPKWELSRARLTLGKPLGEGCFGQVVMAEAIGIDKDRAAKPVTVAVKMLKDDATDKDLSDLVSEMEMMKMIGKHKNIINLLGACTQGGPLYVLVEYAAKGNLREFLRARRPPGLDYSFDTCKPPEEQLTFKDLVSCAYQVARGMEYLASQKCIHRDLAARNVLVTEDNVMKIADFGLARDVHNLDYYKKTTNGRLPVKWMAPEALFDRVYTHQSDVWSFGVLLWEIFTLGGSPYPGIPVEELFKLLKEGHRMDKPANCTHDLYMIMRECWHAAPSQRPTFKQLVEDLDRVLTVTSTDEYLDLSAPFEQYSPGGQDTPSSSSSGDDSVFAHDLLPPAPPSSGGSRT
Assay: FGFR3 (enzymatic assay), TR-FRET
Type: biochemical
Settings: read-out: FGFR 3 pIC50 (converted)
Description: In a final reaction volume of 30 μL, FGFR3 (h) (40 ng/ml) was incubated with 50 mM HEPES pH 7.5, 6 mM MnCl2, 1 mM DTT, 0.1 mM Na3VO4, 0.01% Triton-X-100, 500 nM Btn-Flt3 and 25 μM ATP in the presence of compound (1% DMSO final). […] Time-Resolved Fluorescence Resonance Energy Transfer (TR-FRET) signal (ex340 nm. Em 620 nm, em 655 nm) was measured afterwards and results are expressed in RFU (Relative Fluorescence Units).
reported_endpoint: IC50 (nM)

{"compound": "COc1cc(OC)cc(N(CCNC(C)C)c2ccc3ncc(N4CCC(CN)CC4)nc3c2)c1", "reported_endpoint": "IC50", "measured": 16.6}
{"compound": "COC(=O)C1CCCN1c1cnc2ccc(N(CCO)c3cc(OC)cc(OC)c3)cc2n1 (centres unmarked)", "reported_endpoint": "IC50", "measured": 87.1}
{"compound": "COc1cc(OC)cc(N(CCCNC(C)C)c2ccc3ncc(-c4ccnc(NC(=O)NC(C)C)c4)nc3c2)c1", "reported_endpoint": "IC50", "measured": 5.89}
{"compound": "CNc1ccc(-c2cnc3ccc(N(CCCNCC(F)(F)F)c4cc(OC)cc(OC)c4)cc3n2)cn1", "reported_endpoint": "IC50", "measured": 52.5}

(a) COc1cc(OC)cc(N(CC#Cc2ncccn2)c2ccc3ncc(-c4cccnc4)nc3c2)c1
(b) COc1cc(OC)cc(N(CCO)c2ccc3ncc(-c4ccc(N5CCNCC5)nc4)nc3c2)c1
Problem: Quick one: lower IC50, a or b ? Response format: the label of the selected entry.
Result: b
(b: 4.9 nM, a: 56.2 nM)

(A) COc1cc(OC)cc(N(CC2CC2)c2ccc3ncc(C(=O)N4CCC4)nc3c2)c1
(B) COc1cc(OC)cc(N(CCNC(C)C)c2ccc3ncc(-c4ccccc4)nc3c2)c1
Problem: IC50 comparison. Which is larger, A or B ? Response format: the label of the selected entry.
Result: A
